src = the Kinase Knowledgebase extract (Sharma et al. 2016)

Study Target: UniProt:Q16539
Sequence (Q16539 whole entry, looked up): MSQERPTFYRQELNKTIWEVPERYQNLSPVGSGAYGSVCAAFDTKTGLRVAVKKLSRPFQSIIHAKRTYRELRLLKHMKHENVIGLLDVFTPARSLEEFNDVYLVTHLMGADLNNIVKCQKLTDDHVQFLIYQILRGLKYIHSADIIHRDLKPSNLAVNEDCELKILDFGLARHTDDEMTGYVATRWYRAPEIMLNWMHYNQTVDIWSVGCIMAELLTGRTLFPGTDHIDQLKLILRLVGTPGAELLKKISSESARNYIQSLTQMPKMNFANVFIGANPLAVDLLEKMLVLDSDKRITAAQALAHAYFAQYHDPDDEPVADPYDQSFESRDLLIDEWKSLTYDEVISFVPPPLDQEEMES
Measured IC50 values are reported for all entries that follow.

| Mol | Study Target | IC50 |
| --- | --- | --- |
| Cc1ccc(NC(=O)Nc2sc(C(C)(C)C)cc2C(=O)N2CCN(C(=O)CN(C)C)CC2)cc1-c1cccnc1 | UniProt:Q16539 | 100 to 1000 nM |

## Task Look up and report measured IC50 (UniProt:Q16539) for the following molecule: `Cc1ccc(NC(=O)Nc2sc(C(C)(C)C)cc2C(=O)N2CCN(C)C(=O)C2(C)C)cc1-c1ccc(C[N+]2([O-])CCOCC2)[n+]([O-])c1`
## Result 100 to 1000 nM

## Task Look up and report measured IC50 (UniProt:Q16539) for the following molecule: `Cc1ccc(NC(=O)Nc2sc(C(C)(C)C)cc2C(=O)N2CCNC(=O)C2(C)C)cc1-c1ccc(C(C)C)nc1`
## Result < 100 nM

## Task Look up and report measured IC50 (UniProt:Q16539) for the following molecule: `Cc1ccc(NC(=O)Nc2cn(C(C)(C)C)nc2C(=O)N2CCN(C)C(=O)C2(C)C)cc1-c1ccc(N2CCOCC2)cn1`
## Result < 100 nM
